Biological target: IKZF1 (Homo sapiens, UniProt Q13422+Q96SW2)
Construct: expressed in transfected cells; host or cells: HEK293T (lentiviral transduction, puromycin selection, FACS sorting)
Sequence (Q13422 whole entry): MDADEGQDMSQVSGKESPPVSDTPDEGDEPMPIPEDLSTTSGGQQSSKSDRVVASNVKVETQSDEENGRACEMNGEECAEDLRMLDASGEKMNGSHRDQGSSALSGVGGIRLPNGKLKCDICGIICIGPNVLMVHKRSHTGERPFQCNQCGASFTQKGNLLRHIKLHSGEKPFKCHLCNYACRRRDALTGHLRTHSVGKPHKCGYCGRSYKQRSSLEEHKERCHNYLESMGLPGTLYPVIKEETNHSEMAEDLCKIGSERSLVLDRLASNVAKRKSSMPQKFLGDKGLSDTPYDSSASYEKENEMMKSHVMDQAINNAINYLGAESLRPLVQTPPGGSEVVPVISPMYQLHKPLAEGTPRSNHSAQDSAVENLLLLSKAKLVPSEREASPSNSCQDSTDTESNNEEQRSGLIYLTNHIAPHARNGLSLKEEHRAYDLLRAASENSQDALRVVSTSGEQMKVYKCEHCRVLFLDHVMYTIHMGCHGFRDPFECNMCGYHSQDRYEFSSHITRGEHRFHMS
Sequence (Q96SW2 whole entry): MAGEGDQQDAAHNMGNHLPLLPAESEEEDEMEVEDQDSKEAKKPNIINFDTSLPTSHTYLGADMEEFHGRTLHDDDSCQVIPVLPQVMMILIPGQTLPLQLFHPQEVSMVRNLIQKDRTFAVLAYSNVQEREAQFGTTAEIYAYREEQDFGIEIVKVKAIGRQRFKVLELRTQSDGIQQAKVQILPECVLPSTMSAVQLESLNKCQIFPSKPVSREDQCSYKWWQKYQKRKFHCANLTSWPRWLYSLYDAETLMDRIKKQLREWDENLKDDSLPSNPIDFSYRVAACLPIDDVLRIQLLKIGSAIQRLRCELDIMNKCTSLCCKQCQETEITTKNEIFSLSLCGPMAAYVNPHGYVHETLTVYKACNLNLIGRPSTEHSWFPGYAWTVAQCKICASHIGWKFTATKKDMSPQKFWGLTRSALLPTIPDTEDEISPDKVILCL
Sequence (Q16531 whole entry partner): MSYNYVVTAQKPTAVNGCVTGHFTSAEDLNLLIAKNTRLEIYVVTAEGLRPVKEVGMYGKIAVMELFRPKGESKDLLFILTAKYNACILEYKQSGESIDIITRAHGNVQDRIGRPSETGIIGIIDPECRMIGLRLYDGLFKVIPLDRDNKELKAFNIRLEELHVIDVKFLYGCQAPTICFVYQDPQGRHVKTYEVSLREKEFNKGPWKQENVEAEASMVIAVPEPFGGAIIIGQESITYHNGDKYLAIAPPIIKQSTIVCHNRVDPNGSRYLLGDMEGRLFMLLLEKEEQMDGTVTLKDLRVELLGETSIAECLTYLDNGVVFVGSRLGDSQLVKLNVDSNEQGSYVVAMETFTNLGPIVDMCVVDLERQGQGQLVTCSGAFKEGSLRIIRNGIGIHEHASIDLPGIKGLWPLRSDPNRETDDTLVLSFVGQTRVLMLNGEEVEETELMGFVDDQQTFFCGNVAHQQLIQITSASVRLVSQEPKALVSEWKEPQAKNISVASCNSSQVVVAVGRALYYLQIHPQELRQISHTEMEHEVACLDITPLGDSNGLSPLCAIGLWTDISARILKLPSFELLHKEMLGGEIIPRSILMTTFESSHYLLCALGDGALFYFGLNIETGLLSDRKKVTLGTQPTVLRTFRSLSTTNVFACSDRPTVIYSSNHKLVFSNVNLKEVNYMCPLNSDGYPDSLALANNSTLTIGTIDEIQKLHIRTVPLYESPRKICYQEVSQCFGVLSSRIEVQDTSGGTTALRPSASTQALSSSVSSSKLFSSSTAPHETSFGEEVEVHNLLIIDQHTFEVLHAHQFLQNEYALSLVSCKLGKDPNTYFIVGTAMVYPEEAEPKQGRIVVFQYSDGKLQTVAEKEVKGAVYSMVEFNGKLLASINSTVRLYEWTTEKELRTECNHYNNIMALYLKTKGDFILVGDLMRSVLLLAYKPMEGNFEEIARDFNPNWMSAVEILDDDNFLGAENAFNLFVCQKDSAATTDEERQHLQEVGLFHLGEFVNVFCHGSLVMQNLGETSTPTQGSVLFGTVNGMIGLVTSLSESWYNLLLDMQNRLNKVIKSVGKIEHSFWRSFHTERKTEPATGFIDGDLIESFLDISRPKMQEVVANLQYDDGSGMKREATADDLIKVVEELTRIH
Experiment: Flow cytometry for measuring degradation, HEK293T GFP-POI reporter cells (IKZF1)
Assay type: cell-based
Conditions: 1 μM, 24 h, HEK293T GFP reporter
readout-label: IKZF1% degradation at 1 μM (%)

| compound | unit-text | IKZF1% degradation at 1 μM |
| --- | --- | --- |
| O=C1CCC(N2Cc3cc(NC(=O)c4ccc5occc5c4)ccc3C2=O)C(=O)N1 (stereo not shown) | % | 22.3 |
| O=C1CCC(N2Cc3cc(NC(=O)c4cccc(Oc5ccccc5)c4)ccc3C2=O)C(=O)N1 (stereo not shown) | % | 86.8 |
| O=C1CCC(N2Cc3cc(NC(=O)c4ccc(Oc5ccccc5)cc4)ccc3C2=O)C(=O)N1 (stereo not shown) | % | 9.6 |

[I] COc1ccc2c(c1)C=C(C(=O)Nc1ccc3c(c1)CN(C1CCC(=O)NC1=O)C3=O)CO2 (stereo not shown)
[II] COc1cccc2c1C=C(C(=O)Nc1ccc3c(c1)CN(C1CCC(=O)NC1=O)C3=O)CO2 (stereo not shown)
[III] CN1C(=O)COc2cc(C(=O)Nc3ccc4c(c3)CN(C3CCC(=O)NC3=O)C4=O)ccc21 (stereo not shown)
Please list the entries, largest IKZF1% degradation at 1 μM first. Give the labels in the order requested.
II, I, III
(II: 70.3%, I: 33.9%, III: 20.8%)

[I] O=C1CCC(N2Cc3cc(NC(=O)c4cccc(C(=O)c5ccccc5)c4)ccc3C2=O)C(=O)N1 (stereo not shown)
[II] CC(=O)N1CCC[C@H]1C(=O)Nc1ccc2c(c1)CN(C1CCC(=O)NC1=O)C2=O (stereo partly shown)
Which has the smaller recorded IKZF1% degradation at 1 μM, I or II ? Lab note: record the label of whichever item you select.
II
